measurement.target: hTREX1 (Homo sapiens, UniProt Q9NSU2)
Construct: host or cells: HCT116 dual cells
Sequence (Q9NSU2 1-314): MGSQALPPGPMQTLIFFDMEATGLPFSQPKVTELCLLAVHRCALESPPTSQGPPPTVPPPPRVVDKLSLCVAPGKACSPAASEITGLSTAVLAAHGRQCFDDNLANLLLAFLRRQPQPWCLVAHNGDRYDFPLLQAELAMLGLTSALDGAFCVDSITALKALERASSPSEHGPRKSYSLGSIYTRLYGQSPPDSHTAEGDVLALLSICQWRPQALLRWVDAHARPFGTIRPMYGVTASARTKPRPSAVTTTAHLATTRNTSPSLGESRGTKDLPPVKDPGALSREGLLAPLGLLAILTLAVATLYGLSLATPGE
experimental.protocol: hTREX1 HCT116 Cell Assay (HCT116 dual cells, Lucia luciferase reporter of Type I interferon induction)
Format: cell-based
protocol.conditions: TREX1i 4 h before pBR322/BstNI transfection, read after 48 h
From the text: HCT116 dual cells (Invivogen, San Diego, CA, USA) are derived from the human HCT116 colorectal carcinoma cell line. Cells have been selected for the stable integration of SEAP and Luciferase reporter genes, which expression is under the control of 5 tandem response elements for NF-KB/AP1 and STAT1/STAT2, respectively. The cell line was used to monitor Type I interferon induction and subsequent signaling by measuring the activity of the Lucia luciferase secreted in the culture medium. […]
pIC50: −log10 of the molar value.
Some molecules, each annotated with its measured pIC50.

Q: Which pIC50 is listed for Cc1nccc(C(c2ccccc2C#N)C(C)c2nc(C(=O)Nc3cnoc3)c(O)c(=O)n2C)n1 (single isomer, unassigned) [Example 83 D2E1] ?
A: < 7.00

Q: Lookup CC(c1nc(C(=O)Nc2cnoc2)c(O)c(=O)n1C)C(c1cnn(CCN2CCN(C)CC2)c1)c1ccccc1C#N (single isomer, unassigned) [Example 32 D1E1]
A: < 7.00

Q: Lookup Cc1cnc(C)c(C(c2cc(F)ccc2C#N)C(C)c2nc(C(=O)Nc3cnoc3)c(O)c(=O)n2C)n1 (single isomer, unassigned) [Example 119 D1E1]
A: > 8.00

Next:
Q: Which pIC50 is listed for Cc1cnn(C(c2ccccc2Cl)C(C)c2nc(C(=O)Nc3cnoc3)c(O)c(=O)n2C)c1 (single isomer, unassigned) [Example 133 D1E2] ?
A: 7.00 to 8.00

Q: Lookup Cc1cnc(C)c(C(c2cc(F)ccc2Cl)C(C)c2nc(C(=O)Nc3cnoc3)c(O)c(=O)n2C)n1 (single isomer, unassigned) [Example 121 D1E1]
A: > 8.00

Q: Lookup Cc1cn(C(c2ccccc2Cl)C(C)c2nc(C(=O)Nc3cnoc3)c(O)c(=O)n2C)cn1 (single isomer, unassigned) [Example 142 D1E2]
A: < 7.00

* * *

measurement.target: full length human TREX1 (Homo sapiens, UniProt Q9NSU2)
Construct: N-terminally His-Tev tagged full length human TREX1; made in house; host or cells: E. coli
experimental.protocol: hTREX1 Biochemical Assay (fluorescence, dsDNA substrate degradation)
protocol.conditions: biochemical, read-out: hTREX1 IC50
readout.type: IC50

Known IC50 results, listed for orientation:
Q: Which IC50 is listed for CC(c1nc(C(=O)Nc2cnoc2)c(O)c(=O)n1C)C(c1cnn(C)c1)c1cc(F)ccc1Cl (single isomer, unassigned) [Example 61 D1E1] ?
A: < 1 nM

Q: Lookup CC(c1nc(C(=O)Nc2cnoc2)c(O)c(=O)n1C)C(c1cn[nH]c1)c1ccccc1C#N (single isomer, unassigned) [Example 12 D2E1]
A: 1 to 10 nM

Q: Lookup CC(c1nc(C(=O)Nc2cnoc2)c(O)c(=O)n1C)C(c1cnn(C)c1)c1ccc(C(=O)N(C)C)cc1C#N (single isomer, unassigned) [Example 11 D1E1]
A: < 1 nM

Q: Lookup CC(c1nc(C(=O)Nc2cnoc2)c(O)c(=O)n1C)C(c1cnn(C)c1)c1ccc(Cl)cc1C#N (single isomer, unassigned) [Example 27 D2E1]
A: > 10 nM

Next:
Q: Which IC50 is listed for CC(c1nc(C(=O)Nc2cnoc2)c(O)c(=O)n1C)C(c1cnn(CCN2CCN(C)CC2)c1)c1ccccc1C#N (single isomer, unassigned) [Example 32 D1E1] ?
A: < 1 nM

Q: Lookup Cc1cnn(C(c2ccccc2Cl)C(C)c2nc(C(=O)Nc3cnoc3)c(O)c(=O)n2C)c1 (single isomer, unassigned) [Example 133 D1E2]
A: 1 to 10 nM
